Data origin, for the record: paper PMC10269814

target: LepB Δ2-76 His-SUMO (Escherichia coli signal peptidase I) (Escherichia coli, UniProt P00803)
Sequence (P00803 76-324, looked up, stated change not applied): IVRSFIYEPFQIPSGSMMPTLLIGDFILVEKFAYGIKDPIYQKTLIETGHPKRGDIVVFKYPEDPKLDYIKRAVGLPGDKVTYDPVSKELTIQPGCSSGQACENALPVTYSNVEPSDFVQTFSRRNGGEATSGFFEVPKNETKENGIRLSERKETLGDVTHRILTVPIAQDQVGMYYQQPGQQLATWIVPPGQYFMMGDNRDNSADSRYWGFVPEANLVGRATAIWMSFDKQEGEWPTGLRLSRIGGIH
Peptide text beside a SMILES is read from it.
result-type: pKd
Scale for pKd: -log10 of concentration given in mol/L; no unit attached.

## Task Name the recorded pKd of the compound listed here: C[C@H](N)C(=O)N[C@@H](C)C(=O)N[C@@H](Cc1ccccc1)C(=O)N[C@@H](CCC(=O)O)C(=O)O [Peptide 11] (H-AAFE-OH)
## Result 4.73
